# Protocol: Rat plasma and brain exposure, 100 mg/kg i.p., 3 h
# Type: in vivo
# Condition summary: brain, ip, 100 mg/kg i.p. in 30% captisol, 3-h, read-out: total brain concentration
Readout: concentration at 3 h

# map each compound to its concentration at 3 h
1. Cn1ccc2nc(C(=O)NC3CCOCC3)cc(Cc3ccc(-c4cc[nH]n4)cc3)c21
2. Cn1ccc(-c2ccc(Cc3cc(C(=O)NC4CCOCC4)nc4ccn(C)c34)cc2)n1

Result:
["80 nM", "930 nM"]

====

# Protocol: Rat plasma and brain exposure, 100 mg/kg i.p., 3 h
# Format: in vivo
# Condition summary: brain and plasma, ip, 100 mg/kg i.p.
For each entry below, report its Kp at 3 h value.
Give bare numbers.

Examples from the recorded data:
1. Cn1ccc2nc(C(=O)NC3CCOCC3)cc(Cc3ccc(-c4cc[nH]n4)cc3)c21 [compound 24]
0.07
2. Cn1ccc(-c2ccc(Cc3cc(C(=O)NC4CCOCC4)nc4ccn(C)c34)cc2)n1 [compound 11]
0.26

Continue with the compound presented below.
Q: Requested read-out: Kp at 3 h. Entry: Cn1ccc(-c2ccc(Cc3cc(C(=O)N[C@H]4CCOC[C@@H]4O)nc4ccn(C)c34)cc2)n1 [compound 30]
Result: 0.38

Source listed as paper PMC11413853.
